- Tested on: Dengue-2
- assay.comment: Dengue-2 infection of Vero cells, Intracellular FACS Assay
- Assay type: cell-based
- condition.notes: 20 μM; propidium iodide staining; Vero cells 3 days post-infection
No end group written: not given here.

| sequence.content | % of Dead cells PI (%) |
| --- | --- |
| SWLRDIWDWICEV [^C-13mer] | 3.04 |
| LYGNEGCGWAGWLLSPRG [Peptide 10] | 4.05 |
| DIWDWICEVLSDFK [^N-14mer] | 0.76 |
| SWLRDIWDWI [^C-10mer] | 1.2 |

----------
- Test system: HCV
- assay.comment: HCV focus reduction assay
- Type: cell-based, Hepatitis C virus (JFH-1)
- condition.notes: 72 h; working concentration 18.4-27.5 μM per peptide; Mock 51
# Focus Reduction (72 h) annotations

| sequence.content | Focus Reduction (72 h) |
| --- | --- |
| SWLRDIWD [^C-8mer] | 58 |
| CEVLSDFK [^N-8mer] | 53 |
| SWLRDIWDWICE [^C-12mer] | 107 |
| LRDIWDWICEVLSDFK [^N-16mer] | 125 |
| SWLRDIWDWI [^C-10mer] | 65 |
| SWLRDIWDWICEVLSD [^C-16mer] | 0 |

All figures here come from patent US20070073039A1.
